target: Cell-associated proTGFβ1 (hGARP-proTGFβ1 and hLRRC33-proTGFβ1 complexes); assay: MSD-SET; IgG4 from mammalian cells; mean of hGARP and hLRRC33
Listed next: entries and their corresponding Cell AVRG (average KD).
Provide the reading as a plain figure in nM.

Here is how some binders turned out for Cell AVRG (average KD).
binder="Ab11 (antibody, V domains shown) VH: EVQLLESGGGLVQPGGSLRLSCAASGFTFRNYAMSWVRQAPGKGLEWVSSISGSGGATYYADSVKGRFTISRDNSKNTLYLQMNSLRAEDTAVYYCARVSSGHWDFDYWGQGTLVTVSS VL: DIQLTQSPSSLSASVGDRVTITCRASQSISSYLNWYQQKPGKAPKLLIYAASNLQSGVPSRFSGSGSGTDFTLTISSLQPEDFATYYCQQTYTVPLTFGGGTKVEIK" measured_value=4.65
binder="Ab20 (antibody, V domains shown) VH: EVQLLESGGGLVQPGGSLRLSCAASGFTFSAYAMTWVRQAPGKGLEWVSAISGSGGVTYYADSVKGRFTISRDNSKNTLYLQMNSLRAEDTAVYYCARVSSGHWDYDYWGQGTLVTVSS VL: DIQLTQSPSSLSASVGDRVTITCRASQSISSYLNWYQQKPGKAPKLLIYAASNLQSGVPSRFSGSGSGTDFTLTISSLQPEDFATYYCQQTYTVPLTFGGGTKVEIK" measured_value=1.35
binder="Ab2 (antibody, V domains shown) VH: EVQLLESGGGLVQPGGSLRLSCAASGFTFADYAMTWVRQAPGKGLEWVSAISGSGAATYFADSVKGRFTISRDNSKNTLYLQMNSLRAEDTAVYYCARVSSGHWDFDYWGQGTLVTVSS VL: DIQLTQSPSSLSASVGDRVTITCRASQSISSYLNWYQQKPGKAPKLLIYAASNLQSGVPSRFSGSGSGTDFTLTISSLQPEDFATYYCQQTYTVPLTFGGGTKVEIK" measured_value=2.3

INPUT: Write down Cell AVRG (average KD) measured for item Ab12 (antibody, V domains shown) VH: QVQLVESGGGVVQPGRSLRLSCAASGFTFSDYAMVWVRQAPGKGLEWVSAISGSGFTTYYADSVKGRFTISRDNSKNTLYLQMNSLRAEDTAVYYCARVSSGHWDFDYWGQGTLVTVSS VL: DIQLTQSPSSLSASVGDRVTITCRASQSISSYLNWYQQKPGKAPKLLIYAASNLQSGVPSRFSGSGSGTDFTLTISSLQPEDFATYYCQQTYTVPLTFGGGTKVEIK
OUTPUT: 2.45

INPUT: Write down Cell AVRG (average KD) measured for item Ab19 (antibody, V domains shown) VH: QVQLVESGGGVVQPGRSLRLSCAASGFTFSSFAMTWVRQAPGKGLEWVSAISGSGAATYFADSVKGRFTISRDNSKNTLYLQMNSLRAEDTAVYYCARVSSGHWDFDEWGQGTLVTVSS VL: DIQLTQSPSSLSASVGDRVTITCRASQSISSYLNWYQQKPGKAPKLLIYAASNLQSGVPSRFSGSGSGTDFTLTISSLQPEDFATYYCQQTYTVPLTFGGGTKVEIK
OUTPUT: 4.75
